Listed here: items and their measured EC50.
- System Name: T1, human galectin-10-His (human)
- T1 construct: Whether the last M of the tag is the start Met of galectin-10 is not clear; also called human Gal10-HIS; humanGal10-His
- T1 chain: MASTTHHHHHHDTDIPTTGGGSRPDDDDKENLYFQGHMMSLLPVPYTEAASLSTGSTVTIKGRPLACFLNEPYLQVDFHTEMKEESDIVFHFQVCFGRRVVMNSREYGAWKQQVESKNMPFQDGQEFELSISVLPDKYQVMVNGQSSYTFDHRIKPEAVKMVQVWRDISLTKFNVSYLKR
- Assay Explanation: ELISA, Gal10-His coated at 1 ug/mL, VHH titrated, anti-Myc-HRP

>  <Binder>
VHH clone 13C07 (VHH, Purified VHH-Myc-His from E. coli; not shown: Myc and His tags of the phagemid vector) VHH: QLQVVESGGGLVQAGGSLRLSCAASSSAYSMAWFRQAPGKEREFVAAITWSGGSHHDDSVKGRFTISRDGAKNTVYLQMNSLKPEDTAVYYCAVGTLYSFSYRDYDYWGQGTQVTVSS

>  <EC50 / nM>
107

$$$$
>  <Binder>
VHH clone 13C03 (VHH, Purified VHH-Myc-His from E. coli; not shown: Myc and His tags of the phagemid vector) VHH: QVQLVESGGGLVQPGGSLRLSCAASGSIFSISRMGWYRQAPGKQRELVAIIFSDASTDYADSVKGRFTISRSNAKNTVYLQMNSLKPEDTAVYYCKSVLRAAGYGYFNQYWGQGTQVTVSS

>  <EC50 / nM>
30.6

$$$$
>  <Binder>
VHH clone 13H07 (VHH, Purified VHH-Myc-His from E. coli; not shown: Myc and His tags of the phagemid vector) VHH: QLQLVESGGGLVQAGGSLRLSCVASGRTFSTYAMDWFRQAPGKEREFVAAISWHSAIYYADAVKGRFTISRDNGKNTMYLQMNNLKPEDTAVYFCAAALRYRFNPSAMEYWGKGTLVTVSS

>  <EC50 / nM>
180

$$$$
>  <Binder>
VHH clone 13E09 (VHH, Purified VHH-Myc-His from E. coli; not shown: Myc and His tags of the phagemid vector) VHH: QVQVQESGGGLVQAGNSLRLSCAASGRTFSSYHMMWFRQAPGKEREFVAAIAWRGGTYCANSVKGRCTISRDNAKDTVYLQMNSLKPEDTAVYFCAASLRYVFDPSAMDYWGKGTLVTVSS

>  <EC50 / nM>
106

$$$$
>  <Binder>
VHH clone 1D06 (VHH, not shown: large carriers, Positive control from the previous human-specific panel; also called 1D6) VHH: QLQLVESGGGLVQPGGSLRLSCAASENSVSTYAMGWFRQAPGKEREFVAAITRAGGNTYNADSVKGRFTISRDNAENTIYLQMNSLKPEDTAVYSCAAGPRYSTISTMFPYWGQGTQVTVSS

>  <EC50 / nM>
90.7

$$$$
>  <Binder>
VHH clone 13G12 (VHH, Purified VHH-Myc-His from E. coli; not shown: Myc and His tags of the phagemid vector) VHH: QLQVVESGGGLVQAGGSLRLSCAASSSAYSMGWFRQAPGKEREFVAVISWSGGSHYDDSVKGRFTISRDGAKNTVYLQMNSLKPEDTAVYYCAVGTLYSFRYRDYDYWGQGTQVTVSS

>  <EC50 / nM>
141

$$$$
>  <Binder>
VHH clone 13A05 (VHH, Purified VHH-Myc-His from E. coli; not shown: Myc and His tags of the phagemid vector) VHH: QVQLVESGGGLVQAGGSLRLSCAASSSSYSMSWFRQAPGKEREFVAIISWSGGTYYDDSVKGRFTVSRDNAKNTVYLQMNSLKPEDTAVYYCAAGTQFSFSYREYDYWGQGTQVTVSS

>  <EC50 / nM>
69.7

$$$$
>  <Binder>
VHH clone 13C06 (VHH, Purified VHH-Myc-His from E. coli; not shown: Myc and His tags of the phagemid vector) VHH: QLQLVESGGGLVQAGGSLRLSCAASSSSYSMGWFRQAPGKEREFVATISWSGGFYYDDSVKGRFTVSRDNAKNTVYLQMNSLKPEDTAVYYCAAGTRFSFSYREYHYWGQGTQVTVSS

>  <EC50 / nM>
27.5

$$$$
